target: full-length human LRH-1 D314R (human, UniProt O00482 1-541, D314R); experiment: fluorescence polarisation
Sequence (O00482 whole entry D314R): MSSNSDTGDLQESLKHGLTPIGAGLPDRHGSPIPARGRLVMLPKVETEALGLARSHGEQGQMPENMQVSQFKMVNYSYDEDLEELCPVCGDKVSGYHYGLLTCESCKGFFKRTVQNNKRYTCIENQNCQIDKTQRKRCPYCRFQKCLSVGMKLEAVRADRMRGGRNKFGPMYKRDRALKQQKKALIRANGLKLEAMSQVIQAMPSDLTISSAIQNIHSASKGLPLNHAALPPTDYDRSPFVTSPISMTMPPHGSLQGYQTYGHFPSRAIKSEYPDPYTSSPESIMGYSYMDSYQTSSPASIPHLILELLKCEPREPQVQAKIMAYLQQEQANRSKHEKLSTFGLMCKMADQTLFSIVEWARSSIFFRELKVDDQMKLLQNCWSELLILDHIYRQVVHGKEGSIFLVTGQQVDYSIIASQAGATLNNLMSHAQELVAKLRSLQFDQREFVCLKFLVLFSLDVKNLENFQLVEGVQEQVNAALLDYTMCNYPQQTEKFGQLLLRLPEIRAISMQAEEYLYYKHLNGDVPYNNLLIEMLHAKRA
Ends that are not written are not given here.
MEASUREMENT_KIND: pKd
Value format note: pKd is -log10 of concentration (mol/L); just state the number.

## Task Which measured pKd value corresponds to {FAM}-EEPSLLKKLLLAPA [N-terminally FAM-labeled PGC1α co-regulator peptide (740-EEPSLLKKLLLAPA-753)] ?
## Result 5.64
